The measurements presented in this section are drawn from patent US20170009272A1.

- System: 3T3 (mouse fibroblast) cells
- Assay Method Text: Cytotoxicity assay (MTT) on 3T3 mouse fibroblast cells
- Format: cell-based
- Condition Context: 48 hrs, 1-30 μM tested
Experimental Endpoint: IC50
# number then unit; no other words

Q) May I ask what IC50 has been recorded for COc1cccc(/C=N/N2C(c3n[nH]c(=S)[nH]3)=C(O)c3ccccc3S2(=O)=O)c1O [Compound 10] ?
A) 19.5 µM

====

- Measurement Target: β-glucoronidase (Escherichia coli, UniProt P05804)
- Construct: purchased Sigma Aldrich G7396-25KU
- Sequence (P05804 whole entry): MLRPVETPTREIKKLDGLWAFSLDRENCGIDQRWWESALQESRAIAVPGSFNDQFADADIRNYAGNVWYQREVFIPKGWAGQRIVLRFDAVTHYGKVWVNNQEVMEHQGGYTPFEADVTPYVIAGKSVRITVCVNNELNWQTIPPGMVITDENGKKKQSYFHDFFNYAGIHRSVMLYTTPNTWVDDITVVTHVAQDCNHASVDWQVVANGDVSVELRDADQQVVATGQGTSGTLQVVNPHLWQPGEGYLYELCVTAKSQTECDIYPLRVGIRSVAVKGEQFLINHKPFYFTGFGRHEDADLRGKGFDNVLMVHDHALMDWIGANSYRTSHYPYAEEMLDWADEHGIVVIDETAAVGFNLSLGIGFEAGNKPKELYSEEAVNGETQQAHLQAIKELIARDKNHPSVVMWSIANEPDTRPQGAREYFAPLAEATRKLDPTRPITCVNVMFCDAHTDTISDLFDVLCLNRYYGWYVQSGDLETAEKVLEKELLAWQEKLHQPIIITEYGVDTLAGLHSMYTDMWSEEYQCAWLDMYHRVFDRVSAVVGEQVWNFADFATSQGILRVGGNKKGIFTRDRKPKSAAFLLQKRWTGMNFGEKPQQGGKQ
- Assay Method Text: β-Glucuronidase inhibition assay (spectrophotometric, p-nitrophenyl-β-D-glucuronide substrate)
- Type: biochemical
- Condition Context: β-glucuronidase; test concentration not given
Lab note: compare % inhibition against 90%. Equal or greater, write criterion met. Smaller, write criterion not met.

{"Compound": "Oc1cccc(C(c2c[nH]c3ccc(Br)cc23)c2c[nH]c3ccc(Br)cc23)c1O [Compound 1]", "Category Label": "criterion met"}
{"Compound": "O=C(/C=C/c1ccc(O)cc1)OC[C@@H]1C[C@H](Oc2cc(O)c3c(=O)cc(-c4ccc(O)cc4)oc3c2)[C@@H](O)[C@H](O)[C@H]1O [Compound 3]", "Category Label": "criterion met"}
{"Compound": "COc1cccc(/C=N/N2C(c3n[nH]c(=S)[nH]3)=C(O)c3ccccc3S2(=O)=O)c1O [Compound 10]", "Category Label": "criterion met"}
{"Compound": "COc1ccc(C=NN2C(c3n[nH]c(=S)[nH]3)=C(O)c3ccccc3S2(=O)=O)cc1OC [Compound 5]", "Category Label": "criterion not met"}
{"Compound": "C=S1(=O)c2ccccc2C(O)=C(c2n[nH]c(=S)[nH]2)N1/N=C/c1ccc(OC)c(OC)c1OC (centres unmarked) [Compound 6]", "Category Label": "criterion not met"}
{"Compound": "N#Cc1ccc2[nH]cc(C(c3ccccc3[N+](=O)[O-])c3c[nH]c4ccc(C#N)cc34)c2c1 [Compound 11]", "Category Label": "criterion not met"}

Q) Exam item: decide whether the reported % inhibition for CCN(CC)c1ccc(/C=N/N2C(c3n[nH]c(=S)[nH]3)=C(O)c3ccccc3S2(=O)=O)cc1 [Compound 7] is at least 90%.
A) criterion met

====

# IC50 listing for each entry below
- Measurement Target: β-glucoronidase (Escherichia coli, UniProt P05804)
- Construct: purchased Sigma Aldrich G7396-25KU
- Assay Method Text: β-Glucuronidase inhibition assay (spectrophotometric, p-nitrophenyl-β-D-glucuronide substrate)
- Type: biochemical
// units = µM; emit number, no label

Example entries and their recorded answers appear below.
{"Molecule": "COc1ccc(C=NN2C(c3n[nH]c(=S)[nH]3)=C(O)c3ccccc3S2(=O)=O)cc1OC [Compound 5]", "Readout Number": 11.4}
{"Molecule": "Oc1cccc(C(c2c[nH]c3ccc(Br)cc23)c2c[nH]c3ccc(Br)cc23)c1O [Compound 1]", "Readout Number": 1.2}

Q) May I ask what IC50 has been recorded for N#Cc1ccc2[nH]cc(C(c3ccccc3[N+](=O)[O-])c3c[nH]c4ccc(C#N)cc34)c2c1 [Compound 11] ?
A) 34.9

====

- Measurement Target: β-glucoronidase (Escherichia coli, UniProt P05804)
- Construct: purchased Sigma Aldrich G7396-25KU
- Assay Method Text: β-Glucuronidase inhibition assay (spectrophotometric, p-nitrophenyl-β-D-glucuronide substrate)
- Format: biochemical
- Condition Context: β-glucuronidase; 37° C., 30 min incubation, absorbance at 405 nm; mean of three readings; read-out: IC50
# pIC50 listing for each entry below
As a rule, pIC50 stands for the negative log10 of the concentration, concentration in M.

{"Compound": "O=C1OC(C(O)C(=O)O)C(O)C1O [D-sacharric 1,4-lactone, D-saccharic acid, 1,4-lactone, reference compound]", "Measurement Target": "β-glucoronidase (Escherichia coli, UniProt P05804)", "Readout Number": 4.34}
{"Compound": "C=S1(=O)c2ccccc2C(O)=C(c2n[nH]c(=S)[nH]2)N1/N=C/c1ccc(OC)c(OC)c1OC (stereo not shown)", "Measurement Target": "β-glucoronidase (Escherichia coli, UniProt P05804)", "Readout Number": 4.93}
{"Compound": "O=C(/C=C/c1ccc(O)cc1)OC[C@@H]1C[C@H](Oc2cc(O)c3c(=O)cc(-c4ccc(O)cc4)oc3c2)[C@@H](O)[C@H](O)[C@H]1O", "Measurement Target": "β-glucoronidase (Escherichia coli, UniProt P05804)", "Readout Number": 5.35}

Q) May I ask what pIC50 has been recorded for "CCN(CC)c1ccc(/C=N/N2C(c3n[nH]c(=S)[nH]3)=C(O)c3ccccc3S2(=O)=O)cc1" ?
A) 4.83
